tgt: T1, human CD33 extracellular domain (human, UniProt P20138 18-259)
T1 construct: soluble monomeric ECD; also called human CD33 ECD; hCD33
assayComment: SPR, Fab captured, 37C;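 also: surface plasmon resonance with Fabs captured on anti-Fab surface, soluble monomeric CD33 as analyte at several concentrations, double-referenced 1:1 model fit, KD as koff/kon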
valueType: kon (M⁻¹ s⁻¹)
Express your answer in M⁻¹ s⁻¹, writing the number without its unit.

Query block: Which kon is reported for this binder? ADI-11776 Fab (Fab, V domains shown, Fab fragment; also called Ab3; H76) VH: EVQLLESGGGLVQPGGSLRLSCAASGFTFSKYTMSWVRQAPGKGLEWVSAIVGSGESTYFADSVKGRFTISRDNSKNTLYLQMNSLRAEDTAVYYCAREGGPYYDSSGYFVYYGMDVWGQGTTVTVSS VL: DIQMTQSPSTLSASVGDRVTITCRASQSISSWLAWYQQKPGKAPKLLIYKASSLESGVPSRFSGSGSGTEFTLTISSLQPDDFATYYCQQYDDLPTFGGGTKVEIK
Result block: 1.6e+06

Query block: Which kon is reported for this binder? ADI-11807 Fab (Fab, V domains shown, Fab fragment; also called Ab5; I07) VH: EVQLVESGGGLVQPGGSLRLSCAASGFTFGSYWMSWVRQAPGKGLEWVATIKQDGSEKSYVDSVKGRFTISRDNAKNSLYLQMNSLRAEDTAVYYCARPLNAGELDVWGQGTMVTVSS VL: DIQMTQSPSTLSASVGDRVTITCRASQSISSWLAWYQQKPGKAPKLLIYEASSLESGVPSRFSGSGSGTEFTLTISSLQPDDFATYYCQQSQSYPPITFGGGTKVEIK
Result block: 1.14e+06

Query block: Which kon is reported for this binder? ADI-11812 Fab (Fab, V domains shown, Fab fragment; also called Ab24) VH: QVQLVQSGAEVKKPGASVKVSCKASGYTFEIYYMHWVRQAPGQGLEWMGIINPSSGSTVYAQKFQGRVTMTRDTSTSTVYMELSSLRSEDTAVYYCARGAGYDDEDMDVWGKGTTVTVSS VL: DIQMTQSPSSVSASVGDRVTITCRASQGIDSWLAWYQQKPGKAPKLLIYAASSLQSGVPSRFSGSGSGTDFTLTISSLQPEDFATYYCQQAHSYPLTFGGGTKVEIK
Result block: 396000

Query block: Which kon is reported for this binder? ADI-11826 Fab (Fab, V domains shown, Fab fragment; also called Ab26) VH: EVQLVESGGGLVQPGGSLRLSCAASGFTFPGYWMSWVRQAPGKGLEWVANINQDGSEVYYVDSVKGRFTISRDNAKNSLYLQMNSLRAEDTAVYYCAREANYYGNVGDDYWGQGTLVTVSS VL: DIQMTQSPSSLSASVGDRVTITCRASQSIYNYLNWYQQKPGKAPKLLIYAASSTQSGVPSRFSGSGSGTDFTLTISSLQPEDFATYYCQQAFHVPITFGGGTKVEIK
Result block: 1.76e+06
